# TGI values compiled below
Test system: UACC-62 melanoma
Test: NCI tumour cell line growth inhibition, 48 h
Where a SMILES comes first, the peptide text is derived from it. [ ]: non-standard residue; d: D form. The star is where a group is joined. X13 = OC[C@H](CC1CCCCC1)N*; dIva = CC[C@@](C)(N)C(=O)O; Aib = CC(C)(N)C(=O)O
resultType: TGI (µM)

{"compound": "O=[N+]([O-])c1ccc(-c2nnc(SCc3ccc(O)c4ncccc34)o2)cc1", "resultUnit": "µM", "inequalitySign": "=", "numericResult": 12.6}
{"compound": "C=C(C)[C@@H]1CC[C@]2(COC)CC[C@]3(C)[C@H](CC[C@@H]4[C@@]5(C)CCCNC(C)(C)[C@@H]5CC[C@]43C)[C@@H]12", "resultUnit": "µM", "inequalitySign": "=", "numericResult": 3.11}
{"compound": "CC[C@@](C)(NC(=O)C(C)(C)NC(=O)[C@@H](NC(=O)[C@@H]1CCCN1C(=O)C(C)(C)NC(=O)[C@H](CC(C)C)NC(=O)CNC(=O)C(C)(C)NC(=O)[C@@H](NC(=O)C(C)(C)NC(=O)[C@H](CCC(N)=O)NC(=O)[C@H](C)NC(=O)C(C)(C)NC(=O)[C@H](C)NC(=O)C(C)(C)NC(=O)[C@H](C)NC(=O)C(C)(C)NC(C)=O)C(C)C)C(C)C)C(=O)N[C@@H](CCC(N)=O)C(=O)N[C@@H](CCC(N)=O)C(=O)N[C@H](CO)CC1CCCCC1 (Ac-[Aib]A[Aib]A[Aib]AQ[Aib]V[Aib]GL[Aib]PV[Aib][dIva]QQ-X13)", "resultUnit": "µM", "inequalitySign": ">", "numericResult": 5}
{"compound": "COc1ccc(-c2nnc(SCc3ccc(O)c4ncccc34)n2-c2ccccc2)cc1", "resultUnit": "µM", "inequalitySign": "=", "numericResult": 4.98}

----------
System: HCC-2998 colon
Experiment: NCI tumour cell line growth inhibition, 48 h

{"smilesRepr": "COc1cc(NC2=C(Cl)C(=O)c3nc(C)ccc3C2=O)cc(OC)c1", "resultUnit": "µM", "inequalitySign": "=", "TGI": 3.26}
{"smilesRepr": "O=[N+]([O-])c1ccc(-c2nnc(SCc3ccc(O)c4ncccc34)o2)cc1", "resultUnit": "µM", "inequalitySign": ">", "TGI": 100}
{"smilesRepr": "COc1ccc(-c2nnc(SCc3ccc(O)c4ncccc34)n2-c2ccccc2)cc1", "resultUnit": "µM", "inequalitySign": ">", "TGI": 100}
{"smilesRepr": "C=C(C)[C@@H]1CC[C@]2(COC)CC[C@]3(C)[C@H](CC[C@@H]4[C@@]5(C)CCCNC(C)(C)[C@@H]5CC[C@]43C)[C@@H]12", "resultUnit": "µM", "inequalitySign": "=", "TGI": 2.67}

----------
Test system: SF-539 CNS
Test: NCI tumour cell line growth inhibition, 48 h
Where a SMILES comes first, the peptide text is derived from it. [ ]: non-standard residue; d: D form. The star is where a group is joined. X13 = OC[C@H](CC1CCCCC1)N*; dIva = CC[C@@](C)(N)C(=O)O; Aib = CC(C)(N)C(=O)O
resultType: GI50

{"compound": "COc1cc(NC2=C(Cl)C(=O)c3nc(C)ccc3C2=O)cc(OC)c1", "result": "1.79 µM"}
{"compound": "CC[C@@](C)(NC(=O)C(C)(C)NC(=O)[C@@H](NC(=O)[C@@H]1CCCN1C(=O)C(C)(C)NC(=O)[C@H](CC(C)C)NC(=O)CNC(=O)C(C)(C)NC(=O)[C@@H](NC(=O)C(C)(C)NC(=O)[C@H](CCC(N)=O)NC(=O)[C@H](C)NC(=O)C(C)(C)NC(=O)[C@H](C)NC(=O)C(C)(C)NC(=O)[C@H](C)NC(=O)C(C)(C)NC(C)=O)C(C)C)C(C)C)C(=O)N[C@@H](CCC(N)=O)C(=O)N[C@@H](CCC(N)=O)C(=O)N[C@H](CO)CC1CCCCC1 (Ac-[Aib]A[Aib]A[Aib]AQ[Aib]V[Aib]GL[Aib]PV[Aib][dIva]QQ-X13)", "result": "1.49 µM"}
{"compound": "COc1ccc(-c2nnc(SCc3ccc(O)c4ncccc34)n2-c2ccccc2)cc1", "result": "0.605 µM"}
{"compound": "O=[N+]([O-])c1ccc(-c2nnc(SCc3ccc(O)c4ncccc34)o2)cc1", "result": "0.877 µM"}

----------
Test system: SNB-75 CNS
Experiment: NCI tumour cell line growth inhibition, 48 h
Where a SMILES comes first, the peptide text is derived from it. [ ]: non-standard residue; d: D form. The star is where a group is joined. X13 = OC[C@H](CC1CCCCC1)N*; dIva = CC[C@@](C)(N)C(=O)O; Aib = CC(C)(N)C(=O)O
# TGI values compiled below
resultType: TGI (µM)

{"compound": "O=[N+]([O-])c1ccc(-c2nnc(SCc3ccc(O)c4ncccc34)o2)cc1", "targetDesc": "SNB-75 CNS", "inequalitySign": ">", "numericResult": 100}
{"compound": "C=C(C)[C@@H]1CC[C@]2(COC)CC[C@]3(C)[C@H](CC[C@@H]4[C@@]5(C)CCCNC(C)(C)[C@@H]5CC[C@]43C)[C@@H]12", "targetDesc": "SNB-75 CNS", "inequalitySign": "=", "numericResult": 3.92}
{"compound": "CC[C@@](C)(NC(=O)C(C)(C)NC(=O)[C@@H](NC(=O)[C@@H]1CCCN1C(=O)C(C)(C)NC(=O)[C@H](CC(C)C)NC(=O)CNC(=O)C(C)(C)NC(=O)[C@@H](NC(=O)C(C)(C)NC(=O)[C@H](CCC(N)=O)NC(=O)[C@H](C)NC(=O)C(C)(C)NC(=O)[C@H](C)NC(=O)C(C)(C)NC(=O)[C@H](C)NC(=O)C(C)(C)NC(C)=O)C(C)C)C(C)C)C(=O)N[C@@H](CCC(N)=O)C(=O)N[C@@H](CCC(N)=O)C(=O)N[C@H](CO)CC1CCCCC1 (Ac-[Aib]A[Aib]A[Aib]AQ[Aib]V[Aib]GL[Aib]PV[Aib][dIva]QQ-X13)", "targetDesc": "SNB-75 CNS", "inequalitySign": ">", "numericResult": 5}
{"compound": "COc1ccc(-c2nnc(SCc3ccc(O)c4ncccc34)n2-c2ccccc2)cc1", "targetDesc": "SNB-75 CNS", "inequalitySign": "=", "numericResult": 6.13}
{"compound": "COc1cc(NC2=C(Cl)C(=O)c3nc(C)ccc3C2=O)cc(OC)c1", "targetDesc": "SNB-75 CNS", "inequalitySign": "=", "numericResult": 5.37}

Source of measurements: PubChem BioAssay (NCI)
